tested on: OCT2 and MATE1/2-K; assay: clinical; settings: male, human, in vivo, 50 mg, C max of metformin, with dolutegravir 50 mg BID, first dose; geometric mean (geometric %CV)
OBSERVED_PROPERTY: Cmax

Query string: Indicate its recorded Cmax; the compound in question is CN(C)C(=N)N=C(N)N [Metformin]
Result string: 17 µM

====

test system: OCT2 and MATE1/2-K; experiment: clinical; details: male, human, in vivo, 50 mg, AUC0–24hour, geometric mean, with dolutegravir 50 mg BID, fifth dose
OBSERVED_PROPERTY: AUC(0-t) (µM·h)
Give bare numbers, in µM·h.

Query string: Indicate its recorded AUC(0-t); the compound in question is `CN(C)C(=N)N=C(N)N`
Result string: 213
